systemName: Perforin-1 (Homo sapiens) (UniProt P14222)
Sequence (P14222 whole entry): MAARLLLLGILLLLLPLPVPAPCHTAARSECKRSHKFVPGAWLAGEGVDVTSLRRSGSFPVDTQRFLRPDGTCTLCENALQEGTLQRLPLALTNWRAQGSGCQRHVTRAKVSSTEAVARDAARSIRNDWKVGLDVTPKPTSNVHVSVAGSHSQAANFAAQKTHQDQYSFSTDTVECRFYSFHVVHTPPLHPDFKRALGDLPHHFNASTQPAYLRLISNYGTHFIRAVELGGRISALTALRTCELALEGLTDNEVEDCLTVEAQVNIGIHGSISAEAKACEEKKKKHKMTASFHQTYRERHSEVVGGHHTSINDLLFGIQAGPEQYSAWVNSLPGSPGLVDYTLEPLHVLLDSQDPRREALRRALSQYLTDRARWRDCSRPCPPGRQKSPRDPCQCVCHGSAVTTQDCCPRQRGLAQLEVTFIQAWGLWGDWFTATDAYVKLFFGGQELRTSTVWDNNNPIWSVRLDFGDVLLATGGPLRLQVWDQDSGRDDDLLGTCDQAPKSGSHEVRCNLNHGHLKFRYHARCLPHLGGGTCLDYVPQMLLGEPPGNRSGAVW
experiment: Inhibition of perforin-dependent cell killing activity of human KHYG-1 cells assessed as reduction in cytotoxicity against K562 cells preincubated for 20 mins followed by 51Cr labelled K562 cells addition and measured after 4 hrs by gamma counter analysis
Type: cell-based
conditionNotes: time 260.0 min
Items are presented alongside their recorded log10 of IC90.
Hey, these are logged values: log10 of IC90, nM being the unit before logging.

Use the examples below as a reference point.
Cc1ccc(S(=O)(=O)c2ccc3c(c2)CCN3C)cc1-c1cnc(N)nc1: 2.61
Cc1ccc(S(=O)(=O)c2ccc3c(c2)CCN3)cc1-c1cnc2n[nH]cc2c1: 1.60
Cc1cc(S(=O)(=O)Nc2ccc(C)c(-c3cnc(N)nc3)c2)ccc1N: 1.85
CNC(=O)Nc1ccc(-c2cc(S(=O)(=O)c3ccc4c(c3)CCN4)ccc2C)cc1: 3.65

# context switch: different molecule, same log10 of IC90
Problem: Form field: reported log10 of IC90 of Nc1ccc(S(=O)(=O)c2cccc(-c3cnc(N)nc3)c2)c(C(F)(F)F)c1
Result: 2.12

###

experiment: Cytotoxicity against human KHYG-1 cells assessed as cell viability at 0.24 uM measured after 24 hrs by trypan blue staining based analysis relative to control
Format: toxicity
conditionNotes: read-out: Activity
endpointLabel: viability at 24 h, 0.24 µM (%)
Express the result in % but write the number alone.

Problem: Fill in: viability at 24 h, 0.24 µM of Cc1cc(C(N)=O)cc(S(=O)(=O)c2ccc(C)c(-c3cnc(N)nc3)c2)c1 is ___
Result: 64

###

systemName: UniProtKB P10820
experiment: Binding affinity to recombinant mouse perforin expressed in baculovirus-infected Sf21 cells assessed as change in chemical shift by 19F NMR assay
Kindly return t if reported Activity is no lower than 8 Hz; return f if it is lower.

Please review the following examples before continuing.
Cc1ccc(NS(=O)(=O)c2ccc(N)cc2C(F)(F)F)cc1-c1cnc(N)nc1: f
Cc1ccc(S(=O)(=O)c2ccc(N)cc2C(F)(F)F)cc1-c1cnc(N)nc1: t
Nc1ccc(S(=O)(=O)c2cccc(-c3cnc(N)nc3)c2)c(C(F)(F)F)c1: t
Cc1cc(S(=O)(=O)c2ccc(C)c(-c3cnc(N)nc3)c2)c(C(F)(F)F)cc1N: f

Problem: Check if Activity >= 8 Hz (inclusive). Item: CCNc1ccc(S(=O)(=O)c2ccc(C)c(-c3cnc(N)nc3)c2)c(C(F)(F)F)c1
Result: t

###

systemName: Perforin-1 (Mus musculus)
Sequence (P10820 whole entry): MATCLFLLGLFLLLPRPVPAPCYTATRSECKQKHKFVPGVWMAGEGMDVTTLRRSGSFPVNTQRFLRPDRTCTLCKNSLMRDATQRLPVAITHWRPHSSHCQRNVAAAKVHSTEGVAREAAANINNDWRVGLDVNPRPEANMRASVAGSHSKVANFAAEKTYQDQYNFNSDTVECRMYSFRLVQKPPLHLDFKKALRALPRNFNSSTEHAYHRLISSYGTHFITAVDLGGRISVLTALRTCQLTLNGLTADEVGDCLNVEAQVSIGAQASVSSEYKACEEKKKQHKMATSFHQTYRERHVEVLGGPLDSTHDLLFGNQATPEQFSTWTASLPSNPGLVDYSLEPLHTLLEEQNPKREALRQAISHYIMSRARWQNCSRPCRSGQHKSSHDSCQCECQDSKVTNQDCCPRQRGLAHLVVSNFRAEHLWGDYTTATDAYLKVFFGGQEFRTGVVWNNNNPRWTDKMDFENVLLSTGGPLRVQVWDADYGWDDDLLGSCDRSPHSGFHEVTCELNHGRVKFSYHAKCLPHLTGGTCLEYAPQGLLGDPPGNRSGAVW
experiment: Binding affinity to lipid-coated L1 chip immobilised recombinant mouse perforin expressed in baculovirus-infected Sf21 cells by SPR analysis
pKd: −log10 of the molar value.
endpointLabel: pKd

Cc1cc(S(=O)(=O)c2ccc(C)c(-c3cnc(N)nc3)c2)ccc1N: ~6.70

--- query ---
Problem: Give recorded pKd with Perforin-1 (Mus musculus) for the following compound: Cc1ccc(S(=O)(=O)c2ccc3c(c2)CCN3)cc1-c1cnc(N)nc1
Result: ~6.70

###

systemName: Perforin-1 (Homo sapiens) (UniProt P14222)
experiment: Inhibition of perforin-dependent cell killing activity of human KHYG-1 cells assessed as reduction in cytotoxicity against K562 cells preincubated for 20 mins followed by 51Cr labelled K562 cells addition and measured after 4 hrs by gamma counter analysis
Type: cell-based
conditionNotes: time 260.0 min
Binning scheme for IC90: range 1 = under 40 nM, range 2 = from 40 nM up to 400 nM, range 3 = 400 nM and over

Take a look at these entries with their results.
Cc1cc(NC(=O)c2ccc(C)c(-c3cnc(N)nc3)c2)ccc1N: range 3
Cc1ccc(S(=O)(=O)c2ccc3[nH]ccc3c2)cc1-c1cnc(N)nc1: range 3
Cc1ccc(NS(=O)(=O)c2ccc3c(c2)CCN3)cc1-c1cnc(N)nc1: range 1
Nc1ccc(S(=O)(=O)c2ccc(N)cc2)cc1: range 3
Cc1ccc(S(=O)(=O)c2ccc3c(c2)CCN3)cc1-c1ccc(N)nc1: range 2
Cc1cc(NS(=O)(=O)c2ccc(C)c(-c3cnc(N)nc3)c2)ccc1N: range 3
Cc1ccc(S(=O)(=O)c2ccc3c(c2)CNC3=O)cc1-c1cnc(N)nc1: range 2
Cc1cc(C(N)=O)cc(S(=O)(=O)c2ccc(C)c(-c3cnc(N)nc3)c2)c1: range 1

Problem: Which category does the recorded IC90 put Cc1cc(S(=O)(=O)c2ccc(C)c(-c3cnc(N)nc3)c2)c(C(F)(F)F)cc1N in?
Result: range 2

Problem: What do we get for Cc1cc(S(=O)(=O)c2ccc(C)c(-c3cnc(N)nc3)c2)ccc1N ?
Result: range 2

Problem: Let us now turn to Cc1ccc(S(=O)(=O)c2ccc(N)cc2C(F)(F)F)cc1-c1cnc(N)nc1
Result: range 1
